System: BT-549
testProtocol: normalised response (% of control), CellTox Green; higher = less cell death (100 = DMSO, 0 = benzethonium chloride kill control)
studyConditions: incubation time: 72 h
readoutLabel: normalised response (%)
Give bare numbers, in %.

For orientation, consider the following solved cases.
molecule: CCc1c(C(=O)C(N)=O)c2c(OCC(=O)O)cccc2n1Cc1ccccc1 [Varespladib] (100 nM)
normalised response / %: 99.1

molecule: CC/C(=C(\c1ccccc1)c1ccc(OCCN(C)C)cc1)c1ccccc1 [Tamoxifen] (1000 nM)
normalised response / %: 94

molecule: O=NN(CCCl)C(=O)NC1CCCCC1 [Lomustine] (100 nM)
normalised response / %: 77.1

Please find the next molecule below.
Entry CC[C@@H]1C(=O)N(C)c2cnc(Nc3ccc(C(=O)N[C@H]4CC[C@H](N5CCN(CC6CC6)CC5)CC4)cc3OC)nc2N1C(C)C [Volasertib] (10 nM) under BT-549 had normalised response of 100

---

Tested on: CAL-148
testProtocol: normalised viability (% of control), CellTiter-Blue; higher = more viable cells (100 = DMSO, 0 = benzethonium chloride kill control)
studyConditions: incubation time: 72 h
Consider the following molecules; for each one, report its normalised viability.
Answers are plain numbers, in %.

For orientation, consider the following solved cases.
molecule: COc1cc2c(N3CCN(C(=O)Nc4ccc(OC(C)C)cc4)CC3)ncnc2cc1OCCCN1CCCCC1 [Tandutinib] (0.1 nM)
normalised viability [%]: 107

molecule: COc1cc2c(Oc3ccc(NC(=O)C4(C(=O)Nc5ccc(F)cc5)CC4)cc3F)ccnc2cc1OCCCN1CCOCC1 [Foretinib] (0.1 nM)
normalised viability [%]: 107

molecule: O=C(O)CC[C@H]1CC[C@@](c2cc(F)ccc2F)(S(=O)(=O)c2ccc(Cl)cc2)CC1 [MK-0752] (0.1 nM)
normalised viability [%]: 106

molecule: O=C(c1cc(Cc2n[nH]c(=O)c3ccccc23)ccc1F)N1CCN(C(=O)C2CC2)CC1 [Olaparib] (1 nM)
normalised viability [%]: 87.1

molecule: Cc1c(C(=O)Nc2ccc(N3C[C@@H](C)O[C@@H](C)C3)nc2)cccc1-c1ccc(OC(F)(F)F)cc1 [NVP-LDE225] (1 nM)
normalised viability [%]: 92.9

Quick one: give me normalised viability for each item below, same order please.
1. O=NN(CCCl)C(=O)NC1CCCCC1 [Lomustine] (1 nM)
2. NC(=O)c1cccc2cn(-c3ccc([C@@H]4CCCNC4)cc3)nc12 [MK-4827] (1 nM)

1: 107; 2: 105

---

Tested on: MDA-MB-436
testProtocol: normalised response (% of control), CellTox Green; higher = less cell death (100 = DMSO, 0 = benzethonium chloride kill control)
studyConditions: incubation time: 72 h
readoutLabel: normalised response (%)
Numbers only, in %.

For orientation, consider the following solved cases.
compound: CCN(CC)CCOc1ccc(C(=C(Cl)c2ccccc2)c2ccccc2)cc1 [Clomifene] (10000 nM)
uom: %
normalised response: 89.1
//
compound: CCCc1cc(C)[nH]c(=O)c1CNC(=O)c1cc(-c2ccnc(N3CCN(C)CC3)c2)cc2c1cnn2C(C)C [GSK343] (100 nM)
uom: %
normalised response: 88.6
//
compound: Cc1c(N)nc([C@H](CC(N)=O)NC[C@H](N)C(N)=O)nc1C(=O)N[C@H](C(=O)N[C@H](C)[C@@H](O)[C@H](C)C(=O)N[C@H](C(=O)NCCc1nc(-c2nc(C(=O)NCCC[S+](C)C)cs2)cs1)[C@@H](C)O)[C@@H](OC1OC(CO)C(O)C(O)C1OC1OC(CO)C(O)C(OC(N)=O)C1O)c1cnc[nH]1 (stereo not given in full) [Bleomycin] (1000 nM)
uom: %
normalised response: 84.5
//
compound: O=C(O)CC[C@H]1CC[C@@](c2cc(F)ccc2F)(S(=O)(=O)c2ccc(Cl)cc2)CC1 [MK-0752] (10 nM)
uom: %
normalised response: 99.9
//
compound: CCc1cnn2c(NCc3ccc[n+]([O-])c3)cc(N3CCCC[C@H]3CCO)nc12 [Dinaciclib] (1000 nM)
uom: %
normalised response: 86.5

Quick one: give me normalised response for each item below, same order please.
1. COc1cc2c(cc1-c1c(C)noc1C)ncc1[nH]c(=O)n([C@H](C)c3ccccn3)c12 [I-BET151] (1000 nM)
2. CCN(CC)CCOc1ccc(C(=C(Cl)c2ccccc2)c2ccccc2)cc1 [Clomifene] (1000 nM)
3. CC(C)n1nc(-c2ccc3oc(N)nc3c2)c2c(N)ncnc21 [INK128] (100 nM)
4. CCCc1cc(C)[nH]c(=O)c1CNC(=O)c1cc(-c2ccnc(N3CCN(C)CC3)c2)cc2c1cnn2C(C)C [GSK343] (1000 nM)
5. CCc1cnn2c(NCc3ccc[n+]([O-])c3)cc(N3CCCC[C@H]3CCO)nc12 [Dinaciclib] (100 nM)
6. N[C@@H](Cc1ccc(N(CCCl)CCCl)cc1)C(=O)O [Melphalan] (12500 nM)

99.7
83.7
94.4
79.6
105
-19.3

Quick one: give me normalised response for each item below, same order please.
1. Cc1c(C(=O)Nc2ccc(N3C[C@@H](C)O[C@@H](C)C3)nc2)cccc1-c1ccc(OC(F)(F)F)cc1 [Erismodegib] (10000 nM)
2. NC(=O)NO [Hydroxyurea] (10000 nM)
3. NC(=O)NO [Hydroxyurea] (1000 nM)
4. COc1cc2c(N3CCN(C(=O)Nc4ccc(OC(C)C)cc4)CC3)ncnc2cc1OCCCN1CCCCC1 [Tandutinib] (100 nM)

1. 79
2. 84.6
3. 101
4. 94.2
